FYI, the data here is from ChEMBL document CHEMBL1681679.

# SYSTEM: Vascular endothelial growth factor receptor 2 (Homo sapiens, UniProt P35968)
# Sequence (P35968 whole entry): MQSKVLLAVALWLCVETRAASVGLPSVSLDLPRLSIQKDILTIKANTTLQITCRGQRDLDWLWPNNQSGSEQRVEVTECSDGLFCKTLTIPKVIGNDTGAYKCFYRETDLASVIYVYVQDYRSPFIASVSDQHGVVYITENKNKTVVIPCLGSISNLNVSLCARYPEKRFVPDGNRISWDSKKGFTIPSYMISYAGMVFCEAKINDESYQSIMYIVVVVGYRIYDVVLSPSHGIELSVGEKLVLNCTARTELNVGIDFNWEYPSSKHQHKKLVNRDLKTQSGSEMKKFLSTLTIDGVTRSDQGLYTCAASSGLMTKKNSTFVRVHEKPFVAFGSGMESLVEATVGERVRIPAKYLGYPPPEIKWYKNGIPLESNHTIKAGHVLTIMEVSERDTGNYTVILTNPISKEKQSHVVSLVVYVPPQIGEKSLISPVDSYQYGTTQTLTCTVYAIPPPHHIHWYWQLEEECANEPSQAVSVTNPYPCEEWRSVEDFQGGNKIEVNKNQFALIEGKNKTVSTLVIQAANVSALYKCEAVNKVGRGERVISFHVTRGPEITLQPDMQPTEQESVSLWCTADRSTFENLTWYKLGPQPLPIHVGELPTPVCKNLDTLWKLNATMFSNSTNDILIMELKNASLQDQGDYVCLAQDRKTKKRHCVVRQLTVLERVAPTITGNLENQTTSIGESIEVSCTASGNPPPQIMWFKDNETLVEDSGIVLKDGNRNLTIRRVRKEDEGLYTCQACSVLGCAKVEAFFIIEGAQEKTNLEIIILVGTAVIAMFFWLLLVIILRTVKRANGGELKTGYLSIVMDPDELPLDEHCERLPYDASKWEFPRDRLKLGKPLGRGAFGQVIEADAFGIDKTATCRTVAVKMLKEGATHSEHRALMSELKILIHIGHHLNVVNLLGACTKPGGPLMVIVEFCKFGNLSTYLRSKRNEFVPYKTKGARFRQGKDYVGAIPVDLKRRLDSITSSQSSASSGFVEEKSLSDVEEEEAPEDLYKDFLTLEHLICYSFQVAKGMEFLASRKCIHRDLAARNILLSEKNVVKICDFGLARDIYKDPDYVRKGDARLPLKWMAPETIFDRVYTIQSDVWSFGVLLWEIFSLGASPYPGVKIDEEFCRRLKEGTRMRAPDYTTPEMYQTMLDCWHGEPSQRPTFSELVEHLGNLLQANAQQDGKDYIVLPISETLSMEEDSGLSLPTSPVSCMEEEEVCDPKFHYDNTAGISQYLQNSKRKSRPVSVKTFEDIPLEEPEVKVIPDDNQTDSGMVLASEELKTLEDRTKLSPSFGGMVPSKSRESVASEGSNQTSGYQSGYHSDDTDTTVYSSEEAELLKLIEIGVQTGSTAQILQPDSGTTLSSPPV
# MEASUREMENT_NOTES: Inhibition of human recombinant His-tagged VEGFR2 assessed as […] absorption by ELISA assay in presence of 20 uM ATP
MEASURED_METRIC: IC50 (nM)
Provide only the numeric value, understood in nM.

Please report the recorded IC50 for `Cc1cc(F)c(Nc2ncnc3cc(OCc4ccccc4)ccc23)cc1O` .
2

###

Give inhibition for every item shown.
# SYSTEM: Vascular endothelial growth factor receptor 2 (Homo sapiens, UniProt P35968)
# MEASUREMENT_NOTES: Inhibition of human recombinant His-tagged VEGFR2 assessed as […] absorption at 10 uM by ELISA assay in presence of 20 uM ATP
Reply with just the number (in %).

# input compound: `COc1cc2ncnc(Nc3ccc(C)c(Cl)c3)c2cc1OC` ; wanted: its inhibition
9

For `COc1cc2ncnc(OC(C)C)c2cc1OC` then?
2

Follow-up entry: `COc1cc2ncnc(NC(C)C)c2cc1OC`
13

Now this one: `COc1cc2ncnc(NC3CCCCC3)c2cc1OC`
17

Next compound: `COc1cc2ncnc(Nc3ccc(F)c(F)c3)c2cc1OC`
5

Continue with `CCOc1ncnc2cc(OC)c(OC)cc12`
0

Follow-up item: `COc1cc2ncnc(Nc3ccccc3)c2cc1OC`
19

Follow-up entry: `COc1cc2ncnc(Nc3ccc(F)cc3)c2cc1OC`
6

Please do the same for `COc1cc2ncnc(Nc3ccc(C)c(F)c3)c2cc1OC` as well.
66

And the next one, `COc1cc2ncnc(Nc3ccc(Cl)cc3)c2cc1OC` ?
4
